- Procedure Details: Cytotoxicity against human HuH7 cells after 96 hrs by MTS assay
- Format: cell-based, Huh-7
Value Type: CC50 at 96 h

Observe how each entry below is paired with its result.
>>> result("CC(C)OC(=O)[C@H](C)NP(=O)(OC[C@H]1O[C@@H](n2cnc3c(NC4CC4)nc(N)nc32)[C@](C)(F)[C@@H]1O)Oc1ccccc1 (some centres not stated)")
"96 µM"
>>> result("COC(=O)[C@H](C)NP(=O)(OC[C@H]1O[C@@H](n2cnc3c(OC)nc(N)nc32)[C@](C)(F)[C@@H]1O)Oc1ccccc1 (some centres not stated)")
"> 100 µM"
>>> result("CCOC(=O)[C@H](C)NP(=O)(OC[C@H]1O[C@@H](n2cnc3c(N4CCC4)nc(N)nc32)[C@](C)(F)[C@@H]1O)Oc1ccccc1 (some centres not stated)")
"84 µM"

Please give CC50 at 96 h, item by item, for the list that follows.
1. CCOC(=O)[C@H](C)NP(=O)(OC[C@H]1O[C@@H](n2cnc3c(OCC)nc(N)nc32)[C@](C)(F)[C@@H]1O)Oc1ccccc1 (some centres not stated)
2. C[C@H](NP(=O)(OC[C@H]1O[C@@H](n2cnc3c(O)nc(N)nc32)[C@](C)(F)[C@@H]1O)Oc1ccccc1)C(=O)OC1CCCC1 (some centres not stated)

RESULT:
["47 µM", "> 100 µM"]

Please give CC50 at 96 h, item by item, for the list that follows.
1. COc1nc(N)nc2c1ncn2[C@@H]1O[C@H](COP(=O)(N[C@@H](C)C(=O)OC(C)C)Oc2ccccc2)[C@@H](O)[C@@]1(C)F (stereo in doubt; 23)
2. CCCOc1nc(N)nc2c1ncn2[C@@H]1O[C@H](COP(=O)(N[C@@H](C)C(=O)OC)Oc2ccccc2)[C@@H](O)[C@@]1(C)F (some centres not stated)
3. CCOc1nc(N)nc2c1ncn2[C@@H]1O[C@H](COP(=O)(N[C@@H](C)C(=O)OC(C)C)Oc2ccccc2)[C@@H](O)[C@@]1(C)F (some centres not stated)
4. COC(=O)[C@H](C)NP(=O)(OC[C@H]1O[C@@H](n2cnc3c(NC4CC4)nc(N)nc32)[C@](C)(F)[C@@H]1O)Oc1ccccc1 (some centres not stated)

RESULT:
1: > 100 µM; 2: 39 µM; 3: 59 µM; 4: > 100 µM

----------
- Test system: Hepatitis C virus
- Procedure Details: Antiviral activity against HCV infected in human HuH7 cells by cell-based replicon assay
- Type: functional, Hepacivirus hominis, Huh-7
- Condition: Hepatitis C virus, Huh-7
API: label(entry) gives t if the entry's EC90 is strictly smaller than 10 nM; on equality or larger values it gives f.

QUERY: Is EC90 strictly under 10 nM for the entry COC(=O)[C@H](C)NP(=O)(OC[C@H]1O[C@@H](n2cnc3c(OC)nc(N)nc32)[C@](C)(F)[C@@H]1O)Oc1ccccc1 (stereo not given in full) ?
RESULT: t

QUERY: Is EC90 strictly under 10 nM for the entry CCCOc1nc(N)nc2c1ncn2[C@@H]1O[C@H](COP(=O)(N[C@@H](C)C(=O)OC(C)C)Oc2ccccc2)[C@@H](O)[C@@]1(C)F (stereo not given in full) ?
RESULT: f

QUERY: Is EC90 strictly under 10 nM for the entry CCOC(=O)[C@H](C)NP(=O)(OC[C@H]1O[C@@H](n2cnc3c(O)nc(N)nc32)[C@](C)(F)[C@@H]1O)Oc1ccccc1 (stereo not given in full) ?
RESULT: f

QUERY: Is EC90 strictly under 10 nM for the entry CCCOc1nc(N)nc2c1ncn2[C@@H]1O[C@H](COP(=O)(N[C@@H](C)C(=O)OCC)Oc2ccccc2)[C@@H](O)[C@@]1(C)F (stereo not given in full) ?
RESULT: f
